For each entry below, report its IC50 value.
Test system: MIA PACA-2: Human pancreatic cancer
method: Inhibitory test against cancer cell proliferation (3)
Type: cell-based
experimental conditions: Homo sapiens, MIA PaCa-2; Test Example 6; 50% inhibitory concentration against proliferation; similar operations to Test Example 1

Solved entries (count: 2):
compound	reported measurement
CC(C)(C)c1nc(NC(=O)c2cc(Br)ccc2O)sc1N1CCOCC1 [compound 205]	> 10 µM
O=C(Nc1nc(-c2ccccc2)c(C(=O)c2ccccc2)s1)c1cc(Br)ccc1O [compound 215]	2.76 µM

Now for another entry.
# IC50 measured on MIA PACA-2: Human pancreatic cancer for item CC(C)(C)C(=O)c1sc(NC(=O)c2cc(Cl)ccc2O)nc1C(C)(C)C [compound 199] = 0.56 µM
